Cited source: paper PMC11435065

Assay: Tissue distribution of SGC003F in rats with or without tariquidar
Format: in vivo
Conditions: male, SD, rat, plasma, po, 1 mg/kg, SGC003F p.o. 1 mg/kg, with tariquidar i.v. 7.5 mg/kg, read-out: AUC(0–24h), Plasma
Experimental: A total of 45 male SD rats were randomly divided into 15 groups, with 3 rats in each group; each set of 5 groups constituted a larger group. […] The tissue plasma partition coefficient at individual time point (KP1) was calculated by the ratio of the tissue concentration to the plasma concentration at each time point, as described in Equation (3) KP1 = Ctissue/Cplasma(3) […]
recorded-metric: AUC(0-t) (ng·h/mL)
One number for each entry, in ng·h/mL.

**Query** Quick one: AUC(0-t) of COC(=O)Nc1c(N)nc(-c2nn(Cc3sccc3F)c3ncc(F)cc23)nc1N [SGC003F] ?
**Result** 7540
